tested on: K4 kissing-loop RNA reporter; assay: apparent KD of K4 kissing-loop reporter; higher = weaker reporter binding; details: Eterna round: R107; input ligand: tryptophan 2.4 mM;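 note: bound reporter read as fluorescence of individual clusters on recovered sequencing chips by microscopy, with normalized cluster intensities fitted with a binding model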
Returns one of Condition met or Condition not met; Condition met when apparent KD of K4 kissing-loop reporter is >= 400 nM.

Please review the entries below; each comes with its answer.
[[record]]
item_sequence = "GGGUGGCAGGCGGCCGCCACUCUGAGCAGCCAGUGAGUGAUGUUCGUGGCGGAAGAAUGUUCGUAGAGGACCGGGUUUGUUGUUC [Same State Tryptophan B GF 22]"
qualitative_label = "Condition not met"

[[record]]
item_sequence = "AAUCGAGUGAUGUUCGAUGUAGUGCAUUCAGAGGAUAUAGGAUGGGCUAGAAGGCUGAAAAGUGCUUCGAGUGAUGUUCGAAGAU [Exclusion FMN A GF 4]"
qualitative_label = "Condition not met"

[[record]]
item_sequence = "CACAAUUAAUUACAGUGAUGUUGUAAUCUGCGAGGACCGGUACGGCCGCCACUCGGGCUUGUAGGGCGCCCACAUUCUUAUACUA [theeternabot_sameState_KL_Trp_A_29]"
qualitative_label = "Condition not met"

[[record]]
item_sequence = "AGUGGACGUGUCUGGAGUGAUGUUCUGGAUACCAGACACGAAAGUGUCCCUUGGCAGCCGGAGUGAUGUUCCGGCGUUCACUAAA [Omei KL Theo A Exc B v5]"
qualitative_label = "Condition not met"

[[record]]
item_sequence = "CGCAGUGAUGUUGCUAUUAUUCUUGGUUAACGAGGACCGGUACGGCCGCCACUCGAUGUCUGUCUAGUCCAGUGUUUUUUUGAGU [whbob_EX_Tryp_A_t8]"
qualitative_label = "Condition not met"


For the next question, use this sequence.
IN: Decide: is the reported value of apparent KD of K4 kissing-loop reporter for UUUAUUAAGACGGCCGCCACUGAAUUAGAGUGAUGUUCUAAAAUUACUAAAUUAAAUUUAUUCAACAGGACCGGGUCAAUUAUUA [JR_SSTryptoB_Sub010] equal to or greater than 400 nM?
OUT: Condition met

----------
system: MS2 coat protein; test: apparent KD of MS2 coat protein; designed switch direction (-1 OFF switch, 1 ON switch): -1; higher = weaker reporter binding; settings: input ligand: none
measure: apparent KD of MS2 coat protein (nM)
Numbers only, in nM.

[[record]]
item_sequence = "UAGGUGUAGUUAGGAUAUCGUUGCGAUUAGCUACGAGAAGGAACACAUGAGGAUCACCCAUGUCUACUCAAGAAACGAAAGGAA [6th something] (Eterna round: R96, puzzle: Exclusion NG 1)"
measure = "apparent KD of MS2 coat protein"
measured_number = 24.9

[[record]]
item_sequence = "AUAUAGCGAGGAUAUACAUGAGGAUCACCCAUGUAAUAAAUAUAUAUAUUUAUAUUAUGUAGAAGGCGCUAUAU [-18.5, -17.2 kcal, 39% A] (Eterna round: R97, puzzle: Exclusion 3)"
measure = "apparent KD of MS2 coat protein"
measured_number = 14.5

[[record]]
item_sequence = "UAAAAGCUAGGAUAUACUGGCACACAACUCAUAAAUUCAAGACAUGAGGAUCACCCAUGUAGAAGGAGCAAAUA [EX2 A.3] (Eterna round: R97, puzzle: Exclusion 2)"
measure = "apparent KD of MS2 coat protein"
measured_number = 23.6

[[record]]
item_sequence = "CCGCUCCGUGUAGGAUAUCGGUGUACCCUGCGCCGAGAAGGACAUGAGGAUCACCCAUGUAUGUUAUUAUCACGCGUGGCGCAC [Design 73] (Eterna round: R96, puzzle: Exclusion NG 1)"
measure = "apparent KD of MS2 coat protein"
measured_number = 37.7


Consider now this further sequence.
IN: Give apparent KD of MS2 coat protein for GCCCGGGCAGGAUAUACAAGCUAGUGCUGAAAAGUGCUAGUACAUGAGGAUCACCCAUGUAGAAGGGCCCGGGC [-37.6, -35.7 kcal, A 28% 2bis] (Eterna round: R97, puzzle: Exclusion 2)
OUT: 18.1
